system: amounts of inositol and galactitol in the sciatic nerve; test: Inositol and galactitol in sciatic nerve of rats fed 20% galactose diet for 4 days; type: in vivo, rat (Sprague-Dawley); settings: 10 mg/kg oral, 9 a.m. and 5 p.m., rat sciatic nerve
endpoint: Inhibition Rate (%)
Give a bare numeral; the unit % is implied.

Consider the following illustrative entries.
Cc1cc(C(=S)N(C)CC(=O)OCCO)c2cccc(C(F)(F)F)c2n1 = 46
COc1ccc2c(C(=S)N(C)CC(=O)O)cccc2c1C(F)(F)F [Tolrestat, reference compound] = 86
CN(CC(=O)OCCO)C(=S)c1cc(-c2ccccc2F)nc2cc(F)ccc12 = 26

--- query ---
Incoming: Reported Inhibition Rate (%) for CN(CC(=O)OCCO)C(=S)c1cc(-c2ccccc2)nc2ccccc12 : what is it?
Outgoing: 45

====

system: Male mice of ddY strain; assay: Acute toxicity, oral, rate of death and general symptoms; format: in vivo; conditions: 1000 mg/kg oral, two weeks
endpoint: rate of death

CN(CC(=O)OCCO)C(=S)c1cc(-c2ccccc2)nc2ccccc12 [Compound 1] = 0/4
CCc1cc(C(=S)N(C)CC(=O)OCCO)c2cccc(C(F)(F)F)c2n1 [Compound 5] = 0/4
COc1ccc2c(C(=S)N(C)CC(=O)O)cccc2c1C(F)(F)F [Tolrestat, reference compound] = 3/4

--- query ---
Incoming: Reported rate of death for CN(CC(=O)OCCO)C(=S)c1cc(-c2ccccc2F)nc2cc(F)ccc12 [Compound 3] : what is it?
Outgoing: 0/4

====

IC50 values recorded for aldose reductase (Bos taurus)

CN(CC(=O)OCCO)C(=S)c1cc(-c2ccccc2)nc2ccccc12 = > 8.7 µM

--- query ---
Incoming: Reported IC50 for CN(CC(=O)OCCO)C(=S)c1cc(-c2ccccc2F)nc2cc(F)ccc12 : what is it?
Outgoing: > 8.7 µM

====

As shown below, each of these compounds has a reported Inhibition Rate (%) value.
test system: amounts of inositol and galactitol in the sciatic nerve; test: Inositol and galactitol in sciatic nerve of rats fed 20% galactose diet for 4 days; format: in vivo, rat (Sprague-Dawley); settings: 20 mg/kg oral, 9 a.m. and 5 p.m., rat sciatic nerve
The reply must contain the numeric value and, after it, the unit.

Consider the following illustrative entries.
COc1ccc2c(C(=S)N(C)CC(=O)O)cccc2c1C(F)(F)F [Tolrestat, reference compound] = 96%
Cc1cc(C(=S)N(C)CC(=O)OCCO)c2cccc(C(F)(F)F)c2n1 [Compound 2] = 77%
CN(CC(=O)OCCO)C(=S)c1cc(-c2ccccc2F)nc2cc(F)ccc12 [Compound 3] = 37%

--- query ---
Incoming: Reported Inhibition Rate (%) for CN(CC(=O)OCCO)C(=S)c1cc(-c2ccccc2)nc2ccccc12 [Compound 1] : what is it?
Outgoing: 67%
